The reported numbers originate from the supplement of paper PMC8728848.

- TARGET_SYSTEM: Fuc(a1-2)[Gal(a1-3)]Gal
- RUN_DESCRIPTION: glycan array binding signal (z-score within array); higher = stronger binding
- MEASUREMENT_SETUP: glycan notation: IUPAC condensed, linker removed
The sample as a whole holds a higher share of the strongest signals than the screen did.
PROPERTY_MEASURED: glycan array binding signal (z-score)
Could you respond with only the numeric value?

input: Answer with the recorded glycan array binding signal (z-score) for the binder listed here: Tamarinin (protein) CDDSARAGNIVVYWGQGGSDNSEGSLKEACKSGHYNMIVLQQLIVYDDGRDPDLNLGAHCSDCTKLEEQIKYCQNKDIKILLQIGQVVPTQEDVKDVTKNLSEYLLKNFFSGKSGPLGEVYLNGIDIASVPEGNNLKFDELVEALNDSSTERRIYLSASPLCVYPDYYLNKAIQTEKLDFLFVQFFYQNPCIYTEGNPENLFEAMKTWTKNVPESMIFMALPATPNLDGYIPPRVLNKEILPAVSEASNFAGVMIFDRYFDRFRKYSSKIK
output: -0.275
